# method_description: LY2510924 pharmacokinetics in plasma, noncompartmental analysis
# reported_conditions: human, plasma, sc, Cmax, Day 1; 40 mg/day SC, n = 3; geometric mean (CV%); with durvalumab
Where a SMILES comes first, the peptide text is derived from it. Bridges are numbered along the chain shown (N, C = ends). [ ]: non-standard residue; d: D form. 2Nal = N[C@@H](Cc1ccc2ccccc2c1)C(=O)O; Lys(iPr) = CC(C)NCCCC[C@H](N)C(=O)O
measurement_label: Cmax (ng/mL)
Express it in ng/mL; write the number only.

Annotate the molecule CC(C)NCCCC[C@H](NC(=O)[C@H]1CCC(=O)N[C@@H](Cc2ccccc2)C(=O)N[C@@H](Cc2ccc(O)cc2)C(=O)N[C@@H](CCCCNC(C)C)C(=O)N[C@H](CCCNC(=N)N)C(=O)N[C@@H](Cc2ccc3ccccc3c2)C(=O)NCC(=O)N1)C(N)=O [LY2510924] (FY[Lys(iPr)][dR][2Nal]G[dE][Lys(iPr)]-NH2; lactam N-7) with its measured Cmax.
1860

From: paper PMC7097682
